Each record here notes measured % parent compound remaining, Average.
- EXPERIMENT NOTES: Metabolic stability, pooled human liver microsome incubations
- CONDITION CONTEXT: pHLM, 3 min

COMPOUND: COC(=O)[C@@H](NC(=O)c1cn(CC2CCCCC2)c2ccccc12)C(C)C [(S)-AMB-CHMICA (9)]
% parent compound remaining, Average / %: 52.7

COMPOUND: COC(=O)C(NC(=O)c1cn(CC2CCCCC2)c2ccccc12)C(C)C (stereo in doubt) [(R)-AMB-CHMICA (9)]
% parent compound remaining, Average / %: 73.0

COMPOUND: CC(C)[C@@H](NC(=O)c1nn(Cc2ccc(F)cc2)c2ccccc12)C(N)=O [(R)-AB-FUBINACA (8)]
% parent compound remaining, Average / %: 89.5

COMPOUND: C=CCCCn1cc(C(=O)N[C@H](C(=O)OC)C(C)(C)C)c2ccccc21 [(S)-MDMB-4en-PICA (12)]
% parent compound remaining, Average / %: 77.5

====

- EXPERIMENT NOTES: Metabolic stability, pooled human liver microsome incubations
- CONDITION CONTEXT: pHLM, 6 min
Each record here notes measured % parent compound remaining, Average.

MOLECULE: C=CCCCn1cc(C(=O)N[C@H](C(=O)OC)C(C)(C)C)c2ccccc21 [(S)-MDMB-4en-PICA (12)]
% parent compound remaining, Average, %: 62.6
--
MOLECULE: COC(=O)C(NC(=O)c1nn(CCCCCF)c2ccccc12)C(C)C (stereo in doubt) [(R)-5F-AMB-PINACA (10)]
% parent compound remaining, Average, %: 51.0
--
MOLECULE: COC(=O)[C@H](NC(=O)c1nn(CCCCF)c2ccccc12)C(C)(C)C [(R)-4F-MDMB-BINACA (4)]
% parent compound remaining, Average, %: 72.8
--
MOLECULE: C=CCCCn1cc(C(=O)N[C@H](C(=O)OC)C(C)C)c2ccccc21 [(S)-AMB-4en-PICA (7)]
% parent compound remaining, Average, %: 49.5

====

- System: pooled human cryopreserved hepatocytes (pHHeps)
- EXPERIMENT NOTES: Metabolic stability, pooled human cryopreserved hepatocyte incubations
- CONDITION CONTEXT: pHHeps, 60 min

COMPOUND: COC(=O)[C@@H](NC(=O)c1cn(CC2CCCCC2)c2ccccc12)C(C)C [(S)-AMB-CHMICA (9)]
SYSTEM UNDER TEST: pooled human cryopreserved hepatocytes (pHHeps)
% parent compound remaining, Average: 1.5%
//
COMPOUND: C=CCCCn1cc(C(=O)N[C@H](C(=O)OC)C(C)(C)C)c2ccccc21 [(S)-MDMB-4en-PICA (12)]
SYSTEM UNDER TEST: pooled human cryopreserved hepatocytes (pHHeps)
% parent compound remaining, Average: 25.0%
//
COMPOUND: CCOc1ccc2ccc(=O)oc2c1 [7-ethoxycoumarin, reference compound]
SYSTEM UNDER TEST: pooled human cryopreserved hepatocytes (pHHeps)
% parent compound remaining, Average: 29.0%
//
COMPOUND: COC(=O)[C@@H](NC(=O)c1nn(CCCCCF)c2ccccc12)C(C)(C)C [(S)-5F-MDMB-PINACA (2)]
SYSTEM UNDER TEST: pooled human cryopreserved hepatocytes (pHHeps)
% parent compound remaining, Average: 5.6%
//
COMPOUND: C=CCCCn1nc(C(=O)N[C@@H](C(=O)OC)C(C)(C)C)c2ccccc21 [(R)-MDMB-4en-PINACA (5)]
SYSTEM UNDER TEST: pooled human cryopreserved hepatocytes (pHHeps)
% parent compound remaining, Average: 20.8%
//
COMPOUND: COC(=O)[C@@H](NC(=O)c1cn(CCCCCF)c2ccccc12)C(C)(C)C [(S)-5F-MDMB-PICA (3)]
SYSTEM UNDER TEST: pooled human cryopreserved hepatocytes (pHHeps)
% parent compound remaining, Average: 30.9%
//
COMPOUND: COC(=O)[C@@H](NC(=O)c1nn(CCCCF)c2ccccc12)C(C)(C)C [(S)-4F-MDMB-BINACA (4)]
SYSTEM UNDER TEST: pooled human cryopreserved hepatocytes (pHHeps)
% parent compound remaining, Average: 6.2%
//
COMPOUND: COC(=O)[C@H](NC(=O)c1nn(CCCCCF)c2ccccc12)C(C)(C)C [(R)-5F-MDMB-PINACA (2)]
SYSTEM UNDER TEST: pooled human cryopreserved hepatocytes (pHHeps)
% parent compound remaining, Average: 13.6%
//
COMPOUND: COC(=O)[C@H](NC(=O)c1nn(Cc2ccc(F)cc2)c2ccccc12)C(C)(C)C [(R)-MDMB-FUBINACA (6)]
SYSTEM UNDER TEST: pooled human cryopreserved hepatocytes (pHHeps)
% parent compound remaining, Average: 41.1%
//
COMPOUND: COC(=O)[C@H](NC(=O)c1cn(CCCCCF)c2ccccc12)C(C)(C)C [(R)-5F-MDMB-PICA (3)]
SYSTEM UNDER TEST: pooled human cryopreserved hepatocytes (pHHeps)
% parent compound remaining, Average: 43.7%
//
COMPOUND: COC(=O)[C@H](NC(=O)c1nn(CCCCF)c2ccccc12)C(C)(C)C [(R)-4F-MDMB-BINACA (4)]
SYSTEM UNDER TEST: pooled human cryopreserved hepatocytes (pHHeps)
% parent compound remaining, Average: 37.9%
//
COMPOUND: COC(=O)[C@@H](NC(=O)c1nn(Cc2ccc(F)cc2)c2ccccc12)C(C)C [(S)-AMB-FUBINACA (1)]
SYSTEM UNDER TEST: pooled human cryopreserved hepatocytes (pHHeps)
% parent compound remaining, Average: 0.8%
//
COMPOUND: CC(C)[C@H](NC(=O)c1nn(Cc2ccc(F)cc2)c2ccccc12)C(N)=O [(S)-AB-FUBINACA (8)]
SYSTEM UNDER TEST: pooled human cryopreserved hepatocytes (pHHeps)
% parent compound remaining, Average: 66.6%
//
COMPOUND: C=CCCCn1nc(C(=O)N[C@H](C(=O)OC)C(C)(C)C)c2ccccc21 [(S)-MDMB-4en-PINACA (5)]
SYSTEM UNDER TEST: pooled human cryopreserved hepatocytes (pHHeps)
% parent compound remaining, Average: 3.4%
//
COMPOUND: COC(=O)[C@@H](NC(=O)c1nn(CCCCCF)c2ccccc12)C(C)C [(S)-5F-AMB-PINACA (10)]
SYSTEM UNDER TEST: pooled human cryopreserved hepatocytes (pHHeps)
% parent compound remaining, Average: 0.2%
//
COMPOUND: C=CCCCn1cc(C(=O)N[C@@H](C(=O)OC)C(C)(C)C)c2ccccc21 [(R)-MDMB-4en-PICA (12)]
SYSTEM UNDER TEST: pooled human cryopreserved hepatocytes (pHHeps)
% parent compound remaining, Average: 40.6%
//
COMPOUND: COC(=O)C(NC(=O)c1nn(CCCCCF)c2ccccc12)C(C)C (stereo in doubt) [(R)-5F-AMB-PINACA (10)]
SYSTEM UNDER TEST: pooled human cryopreserved hepatocytes (pHHeps)
% parent compound remaining, Average: 0.2%
//
COMPOUND: C=CCCCn1cc(C(=O)N[C@H](C(=O)OC)C(C)C)c2ccccc21 [(S)-AMB-4en-PICA (7)]
SYSTEM UNDER TEST: pooled human cryopreserved hepatocytes (pHHeps)
% parent compound remaining, Average: 0.6%
//
COMPOUND: CC(C)[C@@H](NC(=O)c1nn(Cc2ccc(F)cc2)c2ccccc12)C(N)=O [(R)-AB-FUBINACA (8)]
SYSTEM UNDER TEST: pooled human cryopreserved hepatocytes (pHHeps)
% parent compound remaining, Average: 78.8%
//
COMPOUND: O=c1ccc2ccc(O)cc2o1 [7-hydroxycoumarin, reference compound]
SYSTEM UNDER TEST: pooled human cryopreserved hepatocytes (pHHeps)
% parent compound remaining, Average: 55.8%

====

- System: pooled human cryopreserved hepatocytes (pHHeps)
- EXPERIMENT NOTES: Metabolic stability, pooled human cryopreserved hepatocyte incubations
- CONDITION CONTEXT: pHHeps, 99x10^6 hepatocytes per gram liver
MEASUREMENT KIND: Hepatic extraction ratio, EH

MOLECULE: COC(=O)[C@H](NC(=O)c1nn(CCCCF)c2ccccc12)C(C)(C)C [(R)-4F-MDMB-BINACA (4)]
VALUE REPORTED: 0.40

MOLECULE: C=CCCCn1nc(C(=O)N[C@H](C(=O)OC)C(C)(C)C)c2ccccc21 [(S)-MDMB-4en-PINACA (5)]
VALUE REPORTED: 0.23

MOLECULE: COC(=O)[C@@H](NC(=O)c1cn(CCCCCF)c2ccccc12)C(C)(C)C [(S)-5F-MDMB-PICA (3)]
VALUE REPORTED: 0.36

MOLECULE: COC(=O)[C@@H](NC(=O)c1nn(CCCCCF)c2ccccc12)C(C)(C)C [(S)-5F-MDMB-PINACA (2)]
VALUE REPORTED: 0.37
